- System: primary human mammary epithelial cells (HMEC)
- protocolSummary: Cell viability assay
- Assay type: cell-based
- details: 48 h, read-out: EC50 cytostatic effect
measurementName: EC50 (nM)

compoundSmiles	recordedMeasurement
COc1cc([C@@H]2c3cc4c(cc3[C@H](O)[C@H]3COC(=O)[C@H]23)OCO4)cc(OC)c1OC	360
